Taken from patent US8314255B2.

system: leukocyte infiltration, peritonitis induced by thioglycolate; experiment: Peritonitis assay induced by 3% thioglycolate; assay type: in vivo; conditions: 300 μMol/Kg orally, mouse, 3% thioglycolate i.p., 4 h
Please note: class 1 applies when Inhibition % (leukocyte infiltrate) is 30% or greater, and class 0 applies otherwise.

molecule=O=C1c2ccccc2C(=O)N1CO[N+](=O)[O-] category="class 0"
molecule="Nc1ccc(S(=O)(=O)NO)cc1 [Compound IIA, 4-amino-N-hydroxybenzenesulphonamide]" category="class 0"
molecule=O=C1c2ccccc2C(=O)N1c1cccc(CO[N+](=O)[O-])c1 category="class 1"

Textbook exercise: given the entry O=C1c2ccccc2C(=O)N1c1ccc(CCO[N+](=O)[O-])cc1 , state whether its Inhibition % (leukocyte infiltrate) is greater than or equal to 30%.
class 0

Given O=C1c2ccccc2C(=O)N1c1ccc(CO[N+](=O)[O-])cc1 , state whether its Inhibition % (leukocyte infiltrate) is at least 30%.
class 1

----------
For each record, write down the corresponding Average inhibition % (ear edema).
test system: mouse ear edema induced by capsaicin; experiment: Mouse ear edema assay induced by capsaicin; type: in vivo; conditions: 300 μmol/Kg i.p., capsaicin 250 μg/ear 1 hour after administration
Answers are plain numbers, in %.

Sample answers from the record:
compound="O=C1c2ccccc2C(=O)N1c1ccc(CO[N+](=O)[O-])cc1 [ID]" reported=37.18
compound="Nc1ccc(S(=O)(=O)NO)cc1 [Compound IIA, 4-amino-N-hydroxybenzenesulphonamide]" reported=49.24
compound="O=C1c2ccccc2C(=O)N1CCO[N+](=O)[O-] [IB]" reported=46.55

Attention now turns to another entry.
Form: Entry = O=C1c2ccccc2C(=O)N1CO[N+](=O)[O-] [Compound IA] | System = mouse ear edema induced by capsaicin | Average inhibition % (ear edema) = ____
53.75

----------
Kindly state Cell Number avg (×106), total leukocytes for each of the entries shown.
System: leukocyte infiltration, peritonitis induced by thioglycolate
Test: Peritonitis assay induced by 3% thioglycolate
Format: in vivo
Conditions: 300 μMol/Kg orally, mouse, 3% thioglycolate i.p., 4 h
Procedure: In a second assay, the number of total leukocytes (10^6/mL) was evaluated in order to evaluate the ability to inhibit their infiltration in the inflammatory process. The mice were treated with the substances being analyzed or carrier and after 1 h of oral administration, they were simultaneously subjected to the peritonitis assay, by administering intraperitoneally 1 ml of a 3% thioglycolate solution. […]

compound="Nc1ccc(S(=O)(=O)NO)cc1 [Compound IIA, 4-amino-N-hydroxybenzenesulphonamide]" reported="4.0 ×106"

Give Cell Number avg (×106), total leukocytes for all compounds that follow.
1. O=C1c2ccccc2C(=O)N1CO[N+](=O)[O-]
2. O=C1c2ccccc2C(=O)N1CCO[N+](=O)[O-]

1: 4.9 ×106; 2: 2.73 ×106

----------
What Average (abdominal writhings) was measured for each of the following?
system: abdominal writhing induced by acetic acid; test: Abdominal writhing assay induced by acetic acid; type: in vivo; conditions: oral, mice, acetic acid 0.1N i.p. after 1 hour, writhings counted during 20 minutes
Answers are plain numbers.

Worked cases, answers included:
molecule="O=C1c2ccccc2C(=O)N1c1ccc(CO[N+](=O)[O-])cc1 [ID]" reported=16.2
molecule="Nc1ccc(S(=O)(=O)NO)cc1 [Compound IIA, 4-amino-N-hydroxybenzenesulphonamide]" reported=30.4
molecule="O=C1c2ccccc2C(=O)N1CO[N+](=O)[O-] [Compound IA]" reported=28.6

Consider now this further molecule.
Given O=C1c2ccccc2C(=O)N1CCO[N+](=O)[O-] [IB] , state its recorded Average (abdominal writhings).
39.2
